B1: TBC1D10A (parent)
chain: WCLVQICEKYLPGYYSEKLEAIQL

- Variants of: B1
- assay-notes: protein stability index of a GFP-peptide fusion (GPS, HEK-293T) (PSI 1-6); higher = more stable;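 further: lentivirally expressed fusions sorted by FACS into six bins by GFP to DsRed ratio, PSI derived from sequencing read proportions per bin multiplied by bin number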
- condition-label: c terminus: a fixed tail appended
value-type: protein stability index

{"mutant-code": "L3C", "result": 3.05}
{"mutant-code": "G13K", "result": 2.91}
{"mutant-code": "A21R", "result": 2.99}
